- Test system: PAMPA
- cond: Papp (x 10^-6 cm/s) – ELSD Detection / [row 18]; ELSD Detection
assay_metric: Papp
Reply with the number and its unit after it.

Query string: Consider the molecule shown here: CCCCC[C@@H]1OC(=O)[C@@H](C)N(C)C(=O)[C@H](CCCCC)OC(=O)[C@@H](C)N(C)C(=O)[C@H](CCCCC)OC(=O)[C@@H](C)N(C)C(=O)[C@H](CCCCC)OC(=O)[C@@H](C)N(C)C1=O [Compound C1.4, ent-verticilide] What is its recorded Papp?
Result string: 6.2 ×10⁻⁶ cm/s

* * *

- assay_method_text: PAMPA, permeability assay across an artificial membrane
- cond: increase: difference between percent diffusion of macrocycle vs linear counterpart
Starred links: 1 amine or outer side, 2 acyl side, 3 side chain; linkers in the order of their positions; H or OH if unused. Non-standard residues stand in square brackets, D forms with d. Residues, ends and D or L forms follow the SMILES beside them. X1 = CCCCC[C@H](O[*:1])C(=O)[*:2]; Ahp(2) = CCCCC[C@H](N)C(=O)O; dNMeA = CN[C@H](C)C(=O)O
assay_metric: Δ % diffusion

compound: CCCCC[C@@H]1NC(=O)[C@@H](C)N(C)C(=O)[C@H](CCCCC)OC(=O)[C@@H](C)N(C)C(=O)[C@H](CCCCC)NC(=O)[C@@H](C)N(C)C(=O)[C@H](CCCCC)OC(=O)[C@@H](C)N(C)C1=O [Compound C2.3] (cyclo([Ahp(2)][dNMeA][X1][dNMeA][Ahp(2)][dNMeA][X1][dNMeA]))
reported_measurement: ↑10%
//
compound: CCCCC[C@@H]1NC(=O)[C@@H](C)N(C)C(=O)[C@H](CCCCC)NC(=O)[C@@H](C)N(C)C(=O)[C@H](CCCCC)OC(=O)[C@@H](C)N(C)C(=O)[C@H](CCCCC)NC(=O)[C@@H](C)N(C)C1=O [Compound C2.4] (cyclo([Ahp(2)][dNMeA][Ahp(2)][dNMeA][Ahp(2)][dNMeA][X1][dNMeA]))
reported_measurement: ↑7%
//
compound: CCCCC[C@@H]1NC(=O)[C@@H](C)N(C)C(=O)[C@H](CCCCC)OC(=O)[C@@H](C)N(C)C(=O)[C@H](CCCCC)OC(=O)[C@@H](C)N(C)C(=O)[C@H](CCCCC)NC(=O)[C@@H](C)N(C)C1=O [Compound C2.2] (cyclo([Ahp(2)][dNMeA][Ahp(2)][dNMeA][X1][dNMeA][X1][dNMeA]))
reported_measurement: ↑17%
//
compound: CCCCC[C@@H]1NC(=O)[C@@H](C)N(C)C(=O)[C@H](CCCCC)OC(=O)[C@@H](C)N(C)C(=O)[C@H](CCCCC)OC(=O)[C@@H](C)N(C)C(=O)[C@H](CCCCC)OC(=O)[C@@H](C)N(C)C1=O [Compound C2.1] (cyclo([Ahp(2)][dNMeA][X1][dNMeA][X1][dNMeA][X1][dNMeA]))
reported_measurement: ↑19%
